Assay: Tmax in Sprague-Dawley rat at 10 mg/kg, po administered as single dose
Type: ADME, organism-based
Settings: in vivo
Value Type: Tmax (min)

> print(dat)
                                 mol.smiles  unit  observed.value
1  O=C(N[C@@H]1CCN(c2nnc(-c3ccc(CO)cc3)c3ccccc23)C1)c1ccc(F)cc1C(F)(F)F   min              15

---

Experiment: Volume of distribution at steady state in Sprague-Dawley rat at 2 mg/kg, iv administered as single dose
Type: ADME, organism-based
Conditions: in vivo, read-out: Vdss
Value Type: Vd (L/kg)

> print(dat)
                                 mol.smiles  unit  observed.value
1  O=C(N[C@@H]1CCN(c2nnc(-c3ccc(CO)cc3)c3ccccc23)C1)c1ccc(F)cc1C(F)(F)F  L/kg            1.47

---

Experiment: Half life in Sprague-Dawley rat at 2 mg/kg, iv administered as single dose
Format: ADME, organism-based
Conditions: in vivo
Value Type: half-life (min)

> print(dat)
                                 mol.smiles  value.type  observed.value
1  O=C(N[C@@H]1CCN(c2nnc(-c3ccc(CO)cc3)c3ccccc23)C1)c1ccc(F)cc1C(F)(F)F   half-life            19.2

---

Experiment: AUC (0 to infinity) in Sprague-Dawley rat at 2 mg/kg, iv administered as single dose
Format: ADME, organism-based
Parameters: dose 2 mg/kg, time infinity, route intravenous
Settings: in vivo
Value Type: AUC(0-inf) (µM·h)

> print(dat)
                                 mol.smiles  observed.value
1  O=C(N[C@@H]1CCN(c2nnc(-c3ccc(CO)cc3)c3ccccc23)C1)c1ccc(F)cc1C(F)(F)F            0.88

---

Assay: Cmax in Sprague-Dawley rat at 10 mg/kg, po administered as single dose
Type: ADME, organism-based
Parameters: dose 10 mg/kg, route oral
Details: in vivo
Value Type: Cmax (nM)

> print(dat)
                                 mol.smiles  unit  observed.value
1  O=C(N[C@@H]1CCN(c2nnc(-c3ccc(CO)cc3)c3ccccc23)C1)c1ccc(F)cc1C(F)(F)F    nM             480

---

Assay: Oral bioavailability in Sprague-Dawley rat at 10 mg/kg administered as single dose
Type: ADME, organism-based
Conditions: in vivo
Value Type: bioavailability (%)

> print(dat)
                                 mol.smiles  unit  observed.value
1  O=C(N[C@@H]1CCN(c2nnc(-c3ccc(CO)cc3)c3ccccc23)C1)c1ccc(F)cc1C(F)(F)F     %             7.4
